Assay: Half life in rat at 1 mg/kg, iv
Format: ADME, organism-based
Set-up: dose 1 mg/kg, route intravenous
Conditions: in vivo

structure-smiles-string	half-life / min
O=C(Nc1ccc2cccnc2c1)c1ccc(-c2ccccc2)nc1	21.6

* * *

Target: Transient receptor potential cation channel subfamily V member 1 (Homo sapiens)
Sequence (Q8NER1 whole entry): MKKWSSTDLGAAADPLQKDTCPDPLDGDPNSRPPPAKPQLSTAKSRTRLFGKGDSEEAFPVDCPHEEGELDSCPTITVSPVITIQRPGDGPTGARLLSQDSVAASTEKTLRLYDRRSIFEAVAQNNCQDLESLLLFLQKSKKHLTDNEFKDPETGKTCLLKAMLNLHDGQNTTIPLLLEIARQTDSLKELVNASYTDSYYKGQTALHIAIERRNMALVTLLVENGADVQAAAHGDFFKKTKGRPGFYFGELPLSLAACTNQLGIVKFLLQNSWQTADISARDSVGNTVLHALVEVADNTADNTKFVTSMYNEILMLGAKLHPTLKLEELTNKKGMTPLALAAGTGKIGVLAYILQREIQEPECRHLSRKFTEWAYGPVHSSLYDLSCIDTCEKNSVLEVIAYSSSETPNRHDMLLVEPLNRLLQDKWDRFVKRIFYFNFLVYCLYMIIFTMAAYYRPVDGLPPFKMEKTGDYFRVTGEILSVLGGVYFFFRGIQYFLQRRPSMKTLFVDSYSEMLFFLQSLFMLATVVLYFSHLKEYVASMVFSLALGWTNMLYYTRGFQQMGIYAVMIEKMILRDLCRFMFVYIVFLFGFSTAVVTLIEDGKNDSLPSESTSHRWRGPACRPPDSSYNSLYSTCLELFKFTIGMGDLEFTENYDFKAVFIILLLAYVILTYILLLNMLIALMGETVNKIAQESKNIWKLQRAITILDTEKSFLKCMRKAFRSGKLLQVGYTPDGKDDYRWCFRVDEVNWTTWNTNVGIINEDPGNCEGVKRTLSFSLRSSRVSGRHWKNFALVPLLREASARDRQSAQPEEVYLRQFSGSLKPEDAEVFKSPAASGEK
Assay: Antagonist activity at human TRPV1 expressed in HEK293 cells assessed as inhibition of capsaicin-induced calcium influx by whole cell patch clamp assay
Assay type: functional, cell-based
pIC50: −log10 of the molar value.
measured-endpoint: pIC50

structure-smiles-string	recorded-result
Cc1nc2cc(NC(=O)c3ccc(-c4ccc(F)cc4)nc3C)ccc2s1	7.31

* * *

Target: UniProtKB Q8NER1
Assay: Antagonist activity at human TRPV1 expressed in human 1321N1 cells assessed as inhibition of capsaicin-induced calcium influx by FLIPR assay
Format: functional, cell-based
just bin them by pKb: low class = under 7, middle class = from 7 up to 8, high class = 8 and over

structure-smiles-string	answer-label
Cc1nc(-c2ccc(F)cc2)ccc1C(=O)Nc1ccc2ncsc2c1	low class
N#Cc1ccc(C(=O)Nc2ccc3cccnc3c2)cn1	low class
Cc1nc(-c2ccc(F)cc2)ccc1C(=O)Nc1ccc2sc(CN(C)C)nc2c1	low class
O=C(Nc1ccc2cccnc2c1)c1ccc(-c2ccccc2F)nc1	high class
O=C(Nc1ccc2cccnc2c1)c1ccc(-c2ccc(C(F)(F)F)cc2)nc1	middle class
Cc1nc2cc(NC(=O)c3ccc(-c4ccc(F)cc4)nc3C)ccc2s1	middle class
Cc1nc(-c2ccc(F)cc2)ccc1C(=O)Nc1ccc2cccnc2c1	high class
Cc1nc2ccc(NC(=O)c3ccc(-c4ccc(F)cc4)nc3C)cc2o1	low class
Cc1nc(-c2ccc(F)cc2)ccc1C(=O)Nc1ccc2ccn(C)c2c1	low class
O=C(Nc1ccc2cccnc2c1)c1ccc(Cl)nc1	low class
Cc1nc(-c2ccc(F)cc2)ccc1C(=O)Nc1ccc2cn[nH]c2c1	middle class
O=C(Nc1ccc2cccnc2c1)c1ccc(-c2cccc(F)c2)nc1	high class
Cc1nc(-c2ccccc2)ccc1C(=O)Nc1ccc2cccnc2c1	high class
Cc1nc(-c2ccc(F)cc2)ccc1C(=O)Nc1ccc2sc(N(C)C)nc2c1	low class
Cc1nc(-c2ccc(F)cc2)ccc1C(=O)Nc1ccc2ncn(C)c2c1	low class
Cc1nc(-c2ccc(F)cc2)ccc1C(=O)Nc1ccc2scnc2c1	middle class
Cc1cc(-c2ccccc2)ncc1C(=O)Nc1ccc2cccnc2c1	low class
N#Cc1ccc(-c2ccc(C(=O)Nc3ccc4cccnc4c3)cn2)cc1	low class
Cc1nc2ccc(NC(=O)c3ccc(-c4ccc(F)cc4)nc3C)cc2[nH]1	low class

* * *

Target: UniProt P08684
Sequence (P08684 whole entry): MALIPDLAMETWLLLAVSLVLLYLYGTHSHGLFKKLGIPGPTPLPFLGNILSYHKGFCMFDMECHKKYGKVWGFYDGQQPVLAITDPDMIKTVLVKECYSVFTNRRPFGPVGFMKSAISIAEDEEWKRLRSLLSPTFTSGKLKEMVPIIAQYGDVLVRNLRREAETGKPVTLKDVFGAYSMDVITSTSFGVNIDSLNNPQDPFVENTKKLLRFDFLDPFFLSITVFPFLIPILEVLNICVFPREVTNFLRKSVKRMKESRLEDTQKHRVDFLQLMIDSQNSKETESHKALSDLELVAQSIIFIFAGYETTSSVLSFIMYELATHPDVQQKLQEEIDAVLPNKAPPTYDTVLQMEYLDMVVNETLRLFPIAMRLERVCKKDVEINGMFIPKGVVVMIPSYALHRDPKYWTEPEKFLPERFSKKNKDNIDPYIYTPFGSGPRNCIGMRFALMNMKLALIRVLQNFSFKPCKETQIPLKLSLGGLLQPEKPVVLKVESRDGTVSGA

structure-smiles-string	IC50
Cc1nc(-c2ccc(F)cc2)ccc1C(=O)Nc1ccc2cccnc2c1	< 10 µM

* * *

Target: Transient receptor potential cation channel subfamily V member 1 (Cavia porcellus)
Sequence (Q6R5A3 whole entry): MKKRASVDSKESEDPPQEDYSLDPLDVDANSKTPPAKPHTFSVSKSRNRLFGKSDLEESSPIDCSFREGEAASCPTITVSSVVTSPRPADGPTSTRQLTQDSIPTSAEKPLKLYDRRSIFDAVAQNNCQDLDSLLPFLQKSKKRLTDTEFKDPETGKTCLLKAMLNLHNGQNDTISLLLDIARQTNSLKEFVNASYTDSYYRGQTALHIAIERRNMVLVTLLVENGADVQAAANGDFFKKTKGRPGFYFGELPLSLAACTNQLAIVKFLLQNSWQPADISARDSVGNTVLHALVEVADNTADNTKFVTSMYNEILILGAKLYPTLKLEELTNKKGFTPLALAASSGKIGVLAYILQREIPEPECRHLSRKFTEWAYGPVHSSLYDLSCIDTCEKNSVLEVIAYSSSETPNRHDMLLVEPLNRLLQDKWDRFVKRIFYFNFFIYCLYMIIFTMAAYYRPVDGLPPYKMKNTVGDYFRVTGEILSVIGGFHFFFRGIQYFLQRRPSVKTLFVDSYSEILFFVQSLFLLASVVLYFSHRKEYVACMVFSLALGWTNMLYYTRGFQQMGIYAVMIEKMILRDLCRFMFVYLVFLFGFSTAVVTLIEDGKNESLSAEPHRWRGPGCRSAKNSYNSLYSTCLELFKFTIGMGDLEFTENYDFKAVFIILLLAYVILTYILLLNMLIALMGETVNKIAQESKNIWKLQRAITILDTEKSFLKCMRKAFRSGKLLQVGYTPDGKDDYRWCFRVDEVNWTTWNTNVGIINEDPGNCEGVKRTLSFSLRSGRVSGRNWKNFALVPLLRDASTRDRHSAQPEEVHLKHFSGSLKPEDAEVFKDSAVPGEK
Assay: Antagonist activity at guinea pig TRPV1 expressed in HEK293 cells assessed as inhibition of pH 5.3 acid-induced calcium influx by FLIPR assay
pIC50: −log10 of the molar value.

structure-smiles-string	pIC50
Cc1nc2cc(NC(=O)c3ccc(-c4ccc(F)cc4)nc3C)ccc2s1	7.20

* * *

Attribute: pKb
Target: Transient receptor potential cation channel subfamily V member 1 (Homo sapiens)
Test: Antagonist activity at human TRPV1 expressed in human 1321N1 cells assessed as inhibition of capsaicin-induced calcium influx by FLIPR assay
Type: functional, cell-based
measured-endpoint: pKb

structure-smiles-string	measurement-target	recorded-result
O=C(Nc1ccc2cccnc2c1)c1ccc(-c2ccc(Cl)cc2)nc1	Transient receptor potential cation channel subfamily V member 1 (Homo sapiens)	7.8
Cc1nc(-c2ccc(F)cc2)ccc1C(=O)Nc1ccc2nc[nH]c2c1	Transient receptor potential cation channel subfamily V member 1 (Homo sapiens)	7.2
O=C(Nc1ccc2cccnc2c1)c1ccc(-c2ccc(F)cc2)nc1	Transient receptor potential cation channel subfamily V member 1 (Homo sapiens)	8.2
Cc1nc(-c2ccc(F)cc2)ccc1C(=O)Nc1ccc2c(C)n[nH]c2c1	Transient receptor potential cation channel subfamily V member 1 (Homo sapiens)	6.9
